The measurements presented in this section are drawn from paper PMC12162814.

# Target System: H-NSctd WT (Salmonella enterica serovar Typhimurium, UniProt P0A1S2 85-137)
# Protocol Summary: NMR titration
pKd: −log10 of the molar value.
Readout Name: pKd

# Binder, Readout Name, Quantitative Readout
rows = [
    ("3AT DNA (dsDNA) DNA 1: CGCATATATGCG DNA 2: CGCATATATGCG", "pKd", 5.82),
]
